- assay target: UniProtKB P70536
- Sequence (P70536 whole entry): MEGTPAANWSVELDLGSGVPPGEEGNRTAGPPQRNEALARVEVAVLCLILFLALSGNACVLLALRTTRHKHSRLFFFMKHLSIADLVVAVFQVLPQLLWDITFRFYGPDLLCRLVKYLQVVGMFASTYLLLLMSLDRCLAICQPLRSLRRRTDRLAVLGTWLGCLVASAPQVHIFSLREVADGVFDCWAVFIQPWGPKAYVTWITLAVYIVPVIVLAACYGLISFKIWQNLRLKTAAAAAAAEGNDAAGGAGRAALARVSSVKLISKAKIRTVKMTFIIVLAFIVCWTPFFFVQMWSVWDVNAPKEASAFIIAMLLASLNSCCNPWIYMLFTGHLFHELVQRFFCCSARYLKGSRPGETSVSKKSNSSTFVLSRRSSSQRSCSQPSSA
- test protocol: Agonist activity at oxytocin receptor in virgin rat uterine horns assessed as uterotonic activity at relative to synthetic oxytocin
Bridge positions count the residues as written; N and C are the ends. Peptide text beside a SMILES is read from it.
Quick reference: Activity of the listed items.

# compound, unit abbreviation, Activity
records = [
    ("CSCC[C@H](NC(=O)[C@@H]1CCCN1C(=O)[C@@H]1CSSC[C@H](N)C(=O)N[C@@H](Cc2ccc(O)cc2)C(=O)N[C@@H](Cc2ccccc2)C(=O)N[C@@H](CC(C)C)C(=O)N[C@@H](CC(N)=O)C(=O)N1)C(=O)NCC(N)=O (H-CYFLNCPMG-NH2; disulfide 1-6)", "%", 66),
    ("CSCC[C@H](NC(=O)[C@@H]1CCCN1C(=O)[C@@H]1CSSC[C@H](N)C(=O)N[C@@H](Cc2ccc(O)cc2)C(=O)N[C@@H](Cc2ccccc2)C(=O)N[C@@H](Cc2ccccc2)C(=O)N[C@@H](CC(N)=O)C(=O)N1)C(=O)NCC(N)=O (H-CYFFNCPMG-NH2; disulfide 1-6)", "%", 54),
    ("CC[C@H](C)[C@@H]1NC(=O)[C@H](Cc2ccc(O)cc2)NC(=O)[C@@H](N)CSSC[C@@H](C(=O)N2CCC[C@H]2C(=O)N[C@@H](CC(C)C)C(=O)NCC(N)=O)NC(=O)[C@H](CC(N)=O)NC(=O)[C@H](Cc2ccccc2)NC1=O (H-CYIFNCPLG-NH2; disulfide 1-6)", "%", 75),
    ("CC(C)C[C@H](NC(=O)[C@@H]1CCCN1C(=O)[C@@H]1CSSC[C@H](N)C(=O)N[C@@H](Cc2ccc(O)cc2)C(=O)N[C@@H](Cc2ccccc2)C(=O)N[C@@H](CCC(N)=O)C(=O)N[C@@H](CC(N)=O)C(=O)N1)C(=O)NCC(N)=O (H-CYFQNCPLG-NH2; disulfide 1-6)", "%", 90),
    ("CC[C@H](C)[C@@H]1NC(=O)[C@H](Cc2ccc(O)cc2)NC(=O)[C@@H](N)CSSC[C@@H](C(=O)N2CCC[C@H]2C(=O)N[C@@H](CC(C)C)C(=O)NCC(N)=O)NC(=O)[C@H](CC(N)=O)NC(=O)[C@H](CC(C)C)NC1=O (H-CYILNCPLG-NH2; disulfide 1-6)", "%", 81),
]

// data source = ChEMBL document CHEMBL3272025
